- System: Cabbage Looper (Trichoplusia ni, TRIPNI)
- test_summary: Bioassays on Cabbage Looper (CL), 128-well diet tray assay
- Type: in vivo
- run_parameters: Trichoplusia ni; Cabbage Looper; rating class; read-out: CL
attribute_measured: pest or weed control at 50 µg/cm2

# molecule, pest or weed control at 50 µg/cm2
data = [
    ("O=C(Nc1c(F)ccc(NC(=O)C(F)F)c1F)c1cc(NC(=O)[C@H]2[C@H](c3ccc(F)c(C(F)(F)F)c3)C2(Cl)Cl)cc(F)c1F", "50 to 100%"),
    ("O=C(Nc1ccc(F)c(NC(=O)C(F)(F)F)c1)c1cc(NC(=O)[C@H]2[C@H](c3cc(Cl)cc(Cl)c3)C2(Cl)Cl)ccc1Cl (relative stereo)", "50 to 100%"),
]

Consider the molecule O=C(Nc1ccc(F)c(NC(=O)C2CCCO2)c1F)c1cc(NC(=O)[C@H]2[C@H](c3ccc(Cl)c(Cl)c3)C2(Cl)Cl)ccc1Cl (stereo partly drawn) and give its measured pest or weed control at 50 µg/cm2.
50 to 100%

====

- Test system: Cabbage Looper (Trichoplusia ni, TRIPNI)
- test_summary: Bioassays on Cabbage Looper (CL), 128-well diet tray assay
- Type: in vivo
- run_parameters: Trichoplusia ni; Cabbage Looper; rating class; read-out: CL
attribute_measured: pest or weed control at 50 µg/cm2

Take a look at these entries with their results.
# molecule, study_target, pest or weed control at 50 µg/cm2
records = [
    ("O=C(Nc1ccc(F)c(NC(=O)C(F)F)c1F)c1cc(NC(=O)[C@H]2[C@H](c3ccc(F)c(I)c3)C2(Cl)Cl)ccc1Cl (relative stereo) [F1624]", "Cabbage Looper (Trichoplusia ni, TRIPNI)", "50 to 100%"),
    ("CN(C(=O)CC#N)c1c(F)ccc(NC(=O)c2cc(NC(=O)[C@H]3[C@H](c4ccc(F)c(C(F)(F)F)c4)C3(Cl)Cl)ccc2Cl)c1F [F1752]", "Cabbage Looper (Trichoplusia ni, TRIPNI)", "50 to 100%"),
]

Which measured pest or weed control at 50 µg/cm2 value corresponds to Nc1c(F)ccc(NC(=O)c2cc(NC(=O)[C@H]3[C@H](c4cccc(Cl)c4)C3(Cl)Cl)ccc2Cl)c1F (relative stereo) [F1595] ?
50 to 100%

====

- Tested on: Beet Armyworm (Spodoptera exigua, LAPHEG)
- test_summary: Bioassays on Beet Armyworm (BAW), 128-well diet tray assay
- Format: in vivo
- run_parameters: Spodoptera exigua; Table ABC: Biological Results; species BAW; read-out: BAW
attribute_measured: pest or weed control at 50 µg/cm2

Could you share which pest or weed control at 50 µg/cm2 value was measured for Nc1c(F)ccc(NC(=O)c2cc(NC(=O)[C@H]3[C@@H](c4cc(Cl)cc(S(F)(F)(F)(F)F)c4)C3(Cl)Cl)ccc2Cl)c1F (relative stereo) ?
50 to 100%

// repeat for Cc1cc(NCc2ccc(OC(F)(F)F)cc2)ccc1NC(=O)c1cc(NC(=O)[C@H]2[C@H](c3cc(Cl)cc(Cl)c3)C2(Cl)Cl)ccc1Cl (relative stereo) and report
50 to 100%

Check O=C(Nc1c(F)cc(F)cc1F)c1cc(NC(=O)[C@H]2[C@H](c3cc(Cl)cc(Cl)c3)C2(Cl)Cl)ccc1Cl (single isomer, unassigned) too.
50 to 100%

====

Recorded pest or weed control at 50 µg/cm2, one value per entry.
- System: Beet Armyworm (Spodoptera exigua, LAPHEG)
- test_summary: Bioassays on Beet Armyworm (BAW), 128-well diet tray assay
- Type: in vivo
- run_parameters: Spodoptera exigua; Table ABC: Biological Results; species BAW; read-out: BAW

Below are worked cases with known answers.
# compound, pest or weed control at 50 µg/cm2
data = [
    ("O=C(Nc1c(F)cc(F)cc1F)c1cc(NC(=O)[C@@H]2[C@@H](c3cc(Cl)cc(Cl)c3)C2(Cl)Cl)ccc1Cl (single isomer, unassigned) [F1378]", "0 to 50%"),
    ("CCOC(C)C(=O)Nc1c(F)ccc(NC(=O)c2cc(NC(=O)[C@H]3[C@H](c4ccc(F)c(C(F)(F)F)c4)C3(Cl)Cl)ccc2Cl)c1F (stereo partly drawn) [F1364]", "50 to 100%"),
    ("O=C(Nc1c(F)ccc(NC(=O)c2cc(NC(=O)[C@H]3[C@H](c4ccc(F)c(C(F)(F)F)c4)C3(Cl)Cl)ccc2Cl)c1F)c1ccc(F)cc1 [F1204]", "50 to 100%"),
    ("Cc1cc(NC(=O)[C@H]2[C@H](c3ccc(F)c(Cl)c3)C2(Cl)Cl)cc(C(=O)Nc2ccc(F)c(N)c2F)c1F (relative stereo) [F1151]", "50 to 100%"),
    ("O=C(Nc1ccc(F)cc1F)c1cc(NC(=O)[C@H]2[C@H](c3ccc(F)c(Cl)c3)C2(Cl)Cl)cc(C(F)(F)F)c1Cl (relative stereo) [F1215]", "50 to 100%"),
]

In the following, a different compound is considered.
So what's the measured pest or weed control at 50 µg/cm2 for this one? CC(=O)Nc1ccc(NC(=O)c2cc(NC(=O)[C@H]3[C@H](c4ccc(F)c(Cl)c4)C3(Cl)Cl)cc(Cl)c2F)cc1 (relative stereo) [F1197]
50 to 100%

====

- Test system: Beet Armyworm (Spodoptera exigua, LAPHEG)
- test_summary: Bioassays on Beet Armyworm (BAW), 128-well diet tray assay
- Format: in vivo
- run_parameters: Spodoptera exigua; Table ABC: Biological Results; species BAW; read-out: BAW
Recorded pest or weed control at 50 µg/cm2 for the following compounds

# compound, study_target, result
rows = [
    ("CC(C)(C)OC(=O)Nc1c(F)ccc(NC(=O)c2cc(NC(=O)[C@H]3[C@H](c4cc(Br)cc(C(F)(F)F)c4)C3(Cl)Cl)ccc2Cl)c1F (relative stereo)", "Beet Armyworm (Spodoptera exigua, LAPHEG)", "50 to 100%"),
]

Given the entry C=C(F)c1cc(NC(=O)c2cc(NC(=O)[C@H]3[C@H](c4cc(Cl)cc(Cl)c4)C3(Cl)Cl)ccc2Cl)ccc1F (relative stereo) , report its measured pest or weed control at 50 µg/cm2.
50 to 100%

Subsequent entry: Cc1c(NC(=O)c2cc(NC(=O)[C@H]3[C@H](c4cc(Cl)cc(Cl)c4)C3(Cl)Cl)ccc2Cl)ccc([N+](=O)[O-])c1C (relative stereo)
50 to 100%

Entry to check: `Nc1ccc(F)c(NC(=O)c2cc(NC(=O)[C@H]3[C@H](c4ccc(Cl)c(Cl)c4)C3(Cl)Cl)ccc2Cl)c1F`
50 to 100%

Query `O=C1CC(C(=O)Nc2c(F)ccc(NC(=O)c3cc(NC(=O)[C@H]4[C@H](c5ccc(F)c(C(F)(F)F)c5)C4(Cl)Cl)ccc3Cl)c2F)C1` next
50 to 100%

Query Cc1cc(NCc2ccc(C(F)(F)F)cc2)ccc1NC(=O)c1cc(NC(=O)[C@H]2[C@H](c3cc(Cl)cc(Cl)c3)C2(Cl)Cl)ccc1Cl (relative stereo) next
50 to 100%

Field entry: `O=C(Nc1c(F)ccc(NC(=O)C(F)F)c1F)c1cc(NC(=O)[C@H]2[C@H](c3cc(Cl)c(Cl)c(Cl)c3)C2(Cl)Cl)ccc1Cl`
50 to 100%

====

pest or weed control at 50 µg/cm2 values, listed per item
- Tested on: Cabbage Looper (Trichoplusia ni, TRIPNI)
- test_summary: Bioassays on Cabbage Looper (CL), 128-well diet tray assay
- Type: in vivo
- run_parameters: Trichoplusia ni; Cabbage Looper; rating class; read-out: CL

Query: pest or weed control at 50 µg/cm2; subject: `O=C(Nc1c(F)ccc(NC(=O)c2cc(NC(=O)[C@H]3[C@H](c4ccc(Cl)c(Cl)c4)C3(Cl)Cl)ccc2Cl)c1F)c1ccns1`
50 to 100%

Same question for O=C1CCC(C(=O)Nc2c(F)ccc(NC(=O)c3cc(NC(=O)[C@H]4[C@H](c5ccc(F)c(C(F)(F)F)c5)C4(Cl)Cl)ccc3Cl)c2F)O1 (stereo partly drawn) please.
50 to 100%

Further, for `O=C(Nc1cc(NC(=O)C(F)(F)F)c(F)cc1F)c1cc(NC(=O)[C@H]2[C@H](c3ccc(F)c(C(F)(F)F)c3)C2(Cl)Cl)cc(F)c1Cl` ?
50 to 100%

====

- System: Cabbage Looper (Trichoplusia ni, TRIPNI)
- test_summary: Bioassays on Cabbage Looper (CL), 128-well diet tray assay
- Assay type: in vivo
- run_parameters: Trichoplusia ni; Cabbage Looper; rating class; read-out: CL
attribute_measured: pest or weed control at 50 µg/cm2

# molecule, attribute_measured, result
measured = [
    ("CC(Cl)CC(=O)Nc1c(F)ccc(NC(=O)c2cc(NC(=O)[C@H]3[C@H](c4ccc(F)c(C(F)(F)F)c4)C3(Cl)Cl)ccc2Cl)c1F (stereo partly drawn) [F1669]", "pest or weed control at 50 µg/cm2", "50 to 100%"),
    ("CC(=O)Nc1c(F)ccc(NC(=O)c2cc(NC(=O)[C@H]3[C@H](c4cc(F)cc(C(F)(F)F)c4)C3(Cl)Cl)ccc2Cl)c1F [F1708]", "pest or weed control at 50 µg/cm2", "50 to 100%"),
    ("O=C(Nc1ccc(F)cc1F)c1cc(NC(=O)[C@H]2[C@H](c3cc(F)c(F)c(F)c3)C2(Cl)Cl)ccc1Cl [F1693]", "pest or weed control at 50 µg/cm2", "50 to 100%"),
    ("CCOCCC(=O)Nc1c(F)ccc(NC(=O)c2cc(NC(=O)[C@H]3[C@H](c4ccc(Cl)c(Cl)c4)C3(Cl)Cl)ccc2Cl)c1F [F1419]", "pest or weed control at 50 µg/cm2", "50 to 100%"),
]

Find the recorded pest or weed control at 50 µg/cm2 belonging to O=C(Nc1ccccc1)c1c(Cl)ccc(NC(=O)[C@H]2[C@H](c3ccc(F)c(Cl)c3)C2(Cl)Cl)c1F [F1466] and report it.
50 to 100%

Would you kindly repeat that for O=C(CC(F)(F)F)Nc1c(F)ccc(NC(=O)c2cc(NC(=O)[C@H]3[C@H](c4cc(F)cc(C(F)(F)F)c4)C3(Cl)Cl)ccc2Cl)c1F [F1710] ?
50 to 100%
